- System: 786-0 renal
- protocol.text: NCI tumour cell line growth inhibition, 48 h
Where a SMILES comes first, the peptide text is derived from it. The star is where a group is joined. Cbz = O=C(OCc1ccccc1)*
outcome.measure: TGI

Use these answered entries as a reference point.
molecule	outcome.measure	result
CCOC(=O)CCC(NC(=O)C(CC(=O)OC)NC(=O)OCc1ccccc1)C(=O)NC(CC(=O)OC)C(=O)NC(CCC(=O)OCC)C(=O)NC(CC(=O)OC)C(=O)NC(CCC(=O)OCC)C(=O)NC(CC(=O)OCC)C(=O)OCC (stereo not drawn) (Cbz-D(OMe)E(OEt)D(OMe)E(OEt)D(OMe)E(OEt)D(OEt)-OEt; configuration not given here)	TGI	> 100 µM
COc1ccc(/C=C2\C(=O)N(C(=O)c3ccc(NC(C)=O)cc3)N=C2C)cc1OC	TGI	> 100 µM

Exercise: Give the measured TGI of COC(=O)C12CCCN1CCC2 .
Solution: > 100 µM

----------
Measured TGI, listed per entry.
- Test system: DMS 114 small cell lung
- protocol.text: NCI tumour cell line growth inhibition, 48 h
Give your result in µM as a bare value.

Exercise: Which TGI value belongs to CN(N=O)C(=O)NC(CCCCNC(=O)OCc1ccccc1)C(=O)OCc1ccccc1 (stereo not given) ?
Solution: 72.6

Exercise: Please report the recorded TGI for CCOc1cc2c(cc1OC)c[n+](C)c1c3cc(OC)c(OC)cc3ccc21 .
Solution: 51.3

----------
- Test system: HCT-116 colon
- protocol.text: NCI tumour cell line growth inhibition, 48 h
# Lookup of reported TGI keyed by entry
Numbers only; they are read as µM.

Example molecules with recorded TGI:
molecule	TGI (µM)
O=C1CC(Nc2ccccc2)c2c(Cl)sc(Cl)c21 (centres undefined)	2.5
COc1cc(-c2csc(NC(=O)Nc3ccc(Cl)cc3)n2)cc(OC)c1OC	8.12
CCCCCCCCCCCC1=NC(C)(C)CN1C(C)C	10.4

Exercise: Field request: TGI | item: c1ccc2[nH]c(-c3ccc(Nc4nc(N5CCCC5)nc5[nH]ncc45)cc3)nc2c1
Solution: 0.473

----------
- Tested on: NCI-H226 lung
- protocol.text: NCI tumour cell line growth inhibition, 48 h
outcome.measure: TGI

molecule	tested.target	outcome.measure	result
Clc1ccc2c(NCCCCNc3nc(N4CCOCC4)nc4ccccc34)ccnc2c1	NCI-H226 lung	TGI	3.68 µM

Exercise: Give its TGI value. Item: COC1C(OC(=O)/C=C/C=C/C=C/C=C/C(=O)O)CCC2(CO2)C1C1(C)OC1CC=C(C)C (stereo not drawn)
Solution: > 100 µM

----------
- System: RPMI-8226 leukemia
- protocol.text: NCI tumour cell line growth inhibition, 48 h
outcome.measure: TGI

// worked examples, TGI included
molecule	TGI
COc1ccc(CC(C)NCC(O)c2ccc(O)c(NC=O)c2)cc1 (stereo unspecified)	> 100 µM
O=c1cc(-c2cccc(Cl)c2)[nH]c2cc3c(cc12)OCO3	> 100 µM
O=c1c(-c2cccc3ccccc23)c(-c2cccc3ccccc23)c1=O	> 100 µM

Exercise: Look up TGI: CC1COS(=O)N1c1ccccc1 (stereo unspecified)
Solution: > 100 µM

Exercise: Tell me the measured TGI of CCOC(=O)c1nc(SC)sc1NC(=O)c1ccc(OC)cc1 , please.
Solution: > 100 µM

Exercise: What TGI value was documented for this molecule, Clc1ccc(NCNC2Nc3ccccc3N2)cc1Cl ?
Solution: > 100 µM

Exercise: Quick check: TGI of CC(NC(=O)c1ccc(Cl)c(Cl)c1)c1ccc(-c2ccccc2)cc1 (stereo unspecified) ?
Solution: > 100 µM

----------
- System: MOLT-4 leukemia
- protocol.text: NCI tumour cell line growth inhibition, 48 h; in the data active = GI50 below about 0.43 µM; inactive = the rest
Hello, when you answer, please use one of the following outcomes: 1 for active, 0 for inactive

smiles.notation	discrete.label
CC(C)Cn1cnc2c(N)nc3ccccc3c21	0
C=CCn1c(SCC(=O)Nc2ccc(C(=O)/C=C/c3cc(OC)c(OC)c(OC)c3)cc2)nnc1-c1cc(OC)c(OC)c(OC)c1	0
Clc1cccc(-c2cc(-c3ccc4c(c3)OCCO4)[nH]n2)c1	0
CN1CCN(c2ccc3nc(-c4[nH]ncc4Nc4ncnc5[nH]ccc45)[nH]c3c2)CC1	0

Exercise: Called result for COc1ccc(-c2nc(-c3nc4cc(Cl)c(Cl)cc4[nH]3)c3ccccn23)cc1
Solution: 0

Exercise: Kindly provide the recorded test outcome for the following compound: O=C(Nc1ccccc1/C=C/c1n[nH]c2ccccc12)c1ccccc1
Solution: 0

Exercise: Field: outcome | Entry: N#Cc1cnc2ccc(NCc3cnc[nH]3)cc2c1Nc1ccc(F)c(Cl)c1
Solution: 0

Exercise: Entry CN1CCC2(CC1)C(=O)Nc1cc(NC(=O)c3ccc4c(c3)C[C@@H]3C(C)(C)[C@H](O)[C@H](F)C[C@@]3(C)O4)ccc12 : call = ?
Solution: 1

----------
- System: NCI-H460 lung
- protocol.text: NCI tumour cell line growth inhibition, 48 h
outcome.measure: TGI (µM)
Could you give me the number in µM? Just the number is fine.

Worked set:
molecule	TGI [µM]
O=C(CSc1nc2ccccc2c(=O)n1-c1ccccc1)N=Nc1c(O)[nH]c2ccc(Br)cc12	41.8
Fc1ccc(/C=C2\COCC3=C2NC(=S)NC3c2ccc(F)cc2)cc1 (stereo unspecified)	36

Now for a further molecule.
Exercise: Give the measured TGI of O=C1/C(=C/c2cc(O)c(O)c(O)c2)Oc2cc(O)cc(OC3OC(CO)C(O)C(O)C3O)c21 (stereo unspecified) .
Solution: 34

----------
- System: LOX IMVI melanoma
- protocol.text: NCI tumour cell line growth inhibition, 48 h
Known TGI of a selection of compounds
# output: bare number, implied unit µM

compound	TGI, µM
O=C(c1ccccc1)c1nc2ccc(Cl)cc2cc1C(Br)Br	3.7

Alright, here's another compound for you.
Exercise: Which value of TGI has been reported for OC(c1ccccc1)c1c(-c2ccccc2)[nH]c(-c2ccccc2)c1C(O)c1ccccc1 (stereo not given) in the records?
Solution: 7.37

----------
TGI reference
- System: SK-MEL-28 melanoma
- protocol.text: NCI tumour cell line growth inhibition, 48 h

Past entries and their recorded results:
compound	outcome.measure	result
CN(C)N1C(=C(C#N)C#N)C(c2ccccc2)CC1C#N (stereo unspecified)	TGI	> 100 µM
CC(=O)Oc1ccc2c(c1)O/C(=C\c1ccc(N(C)C)cc1)C2=O	TGI	> 100 µM
COc1cccc(C2CC(C)(O)Oc3cc4c(cc32)OCO4)c1 (stereo unspecified)	TGI	> 100 µM

Exercise: Any idea what its TGI is? The compound is COc1ccc(-c2cc(=O)c3c(C)ccnc3[nH]2)cc1
Solution: > 100 µM

Exercise: # get_value(readout='TGI', item= Clc1ccc2c(NCCCCNc3nc(N4CCOCC4)nc4ccccc34)ccnc2c1 )
Solution: 4.03 µM

Exercise: // TGI lookup, key: [O-]c1ccccc1C=NCCN=Cc1ccccc1[O-].[O]=[U+2]=[O]
Solution: > 78.7 µM

Exercise: # input compound: CCCCCCc1cc2cc(C(=O)Nc3nc(C45CC6CC(CC(C6)C4)C5)cs3)c(=O)oc2cc1O ; wanted: its TGI
Solution: > 100 µM

Exercise: Using the record for CC(C)OC(=O)Nc1c([N+](=O)[O-])cc(C(F)(F)F)cc1[N+](=O)[O-] , report its TGI.
Solution: > 100 µM

Exercise: What measured TGI goes with Cc1c2ccccc2c(=O)n2c(-c3ccccn3)cccc12 ?
Solution: > 100 µM

Exercise: If you can, please state the reported TGI value of CC(C)N1CCOC(c2ccc(O)c(O)c2)C1 (stereo unspecified) .
Solution: > 100 µM

Exercise: Returns the measured TGI for the input compound. Input: Oc1ccc(CCNc2nc3ccccc3c3[nH]c4ccccc4c23)cc1O
Solution: 18.3 µM

----------
- System: MALME-3M melanoma
- protocol.text: NCI tumour cell line growth inhibition, 48 h
Form field: TGI (one value per entry).

smiles.notation	TGI
CSC(=Nc1ccc([N+](=O)[O-])cc1C#N)NC(=O)c1ccccc1	> 100 µM

Exercise: Look at this compound and give its reported TGI. N#CSc1c[nH]c2ccc(/C=C/C(=O)/C=C(O)/C=C/c3ccc4[nH]cc(SC#N)c4c3)cc12
Solution: 5.91 µM

Exercise: Given CCCCCCc1cc2cc(C(=O)Nc3nc(C45CC6CC(CC(C6)C4)C5)cs3)c(=O)oc2cc1O , state its recorded TGI.
Solution: 51.1 µM

Exercise: Value lookup for TGI; key = O=c1[nH]c(=O)n(Cc2ccc(C34CC5CC(CC(C5)C3)C4)c(O)c2)cc1F
Solution: 30.9 µM

Exercise: Please report the recorded TGI for COc1cc(O)c2c(=O)c3cccc(C)c3[nH]c2c1 .
Solution: > 10 µM

Exercise: For the compound COc1cc(OC)c(-n2[nH]c(=O)n(C)c2=O)c(OC)c1 , what TGI is on record?
Solution: > 100 µM

Exercise: What value of measured TGI is listed for CCOc1ccc2c(c1)[n+]([O-])c(-c1ccccc1)c(N)[n+]2[O-] ?
Solution: > 100 µM

Exercise: Would you kindly share the measured TGI for O=C(O)c1c2c(c(O)c3c1CN(C1CCCCC1)CO3)OCN(C1CCCCC1)C2 ?
Solution: > 100 µM

Cited source: PubChem BioAssay (NCI)
